Please respond with reported Effectiveness of The Drug, Without forces (E) for every item in the list.
Tested on: NCI-H358 cells
Assay Name: Drug exposure with or without simulated forces, 6-well Bioflex plates, live cell count and exponential growth model
Assay type: cell-based, human
Condition: percentage reduction in live cell counts, 3-day drug exposure at IC90, no forces
# number only, unit % dropped from output

Q: Please report the recorded Effectiveness of The Drug, Without forces (E) for COc1cc2c(Nc3ccc(Br)cc3F)ncnc2cc1OCC1CCN(C)CC1 [Zactima] .
A: 81.6

Q: What about CC(=O)O[C@H]1C(=O)[C@@]2(C)[C@H]([C@H](OC(=O)c3ccccc3)[C@]3(O)C[C@H](OC(=O)[C@H](O)[C@@H](NC(=O)c4ccccc4)c4ccccc4)C(C)=C1C3(C)C)[C@]1(OC(C)=O)CO[C@@H]1C[C@@H]2O [Paclitaxel] ?
A: 70.5

Q: Same question, COc1cccc2c1C(=O)c1c(O)c3c(c(O)c1C2=O)C[C@@](O)(C(=O)CO)C[C@@H]3O[C@H]1C[C@H](N)[C@H](O)[C@H](C)O1 [Doxorubicin] this time
A: 72.7

Q: // query: N.N.[Cl][Pt][Cl] [Cisplatin]
A: 72.4

###

Exercise: for every item that follows, state its recorded Effectiveness of The Drug, With forces (Ef).
System: NCI-H358 cells
Assay Name: Drug exposure with or without simulated forces, 6-well Bioflex plates, live cell count and exponential growth model
Assay type: cell-based, human
Condition: percentage reduction in live cell counts, 3-day drug exposure at IC90, simulated forces
Description: Treatments 1, 2 and 3 served as unstretched controls for Treatments 4, 5 and 6, respectively. […] Cells were trypsinized and counted at the end of day 3 in Treatments 1 and 4, and at the end of day 6 in the other treatments, using a Beckman Coulter Vi-Cell Analyzer (Beckman Coulter, Fullerton, Calif.). […]
Record the value in %, omitting the unit from your answer.

Q: State the recorded Effectiveness of The Drug, With forces (Ef) for this entry: N.N.[Cl][Pt][Cl] [Cisplatin]
A: 62.1

Q: // next record CC(=O)O[C@H]1C(=O)[C@@]2(C)[C@H]([C@H](OC(=O)c3ccccc3)[C@]3(O)C[C@H](OC(=O)[C@H](O)[C@@H](NC(=O)c4ccccc4)c4ccccc4)C(C)=C1C3(C)C)[C@]1(OC(C)=O)CO[C@@H]1C[C@@H]2O
A: 66.8

Q: Same for COc1cccc2c1C(=O)c1c(O)c3c(c(O)c1C2=O)C[C@@](O)(C(=O)CO)C[C@@H]3O[C@H]1C[C@H](N)[C@H](O)[C@H](C)O1
A: 73.9

Q: Repeat with COc1cc2c(Nc3ccc(Br)cc3F)ncnc2cc1OCC1CCN(C)CC1
A: 93.7
